Biological target: T1, MHC class I molecule B*0702 (biotin (bound to streptavidin-coated plate))
T1 construct: also called B7; HLA-B7
Test: iTopia iScore
Procedure: The 9 mers were tested for Peptide Binding, Off Rate and Affinity using iTopia Epitope Discovery System in accordance with the manufacturer's instructions. Briefly, 96 well microtitre plates coated with MHC molecules representing different MHC alleles are used to identify candidate peptides. […] Determinations are performed in duplicate using an ELISA plate reader and included allele specific positive controls. […]
attribute.measured: iScore

Consider the following illustrative entries.
PPLAELAAL [5T4 9-mer peptide 58 PPLAELAAL]: 0.145
VSAPSPLVE [5T4 9-mer peptide 85 VSAPSPLVE]: 0
PPEDERQNR [5T4 9-mer peptide 93 PPEDERQNR]: 0
FSSSAPFLA [5T4 9-mer peptide 21 FSSSAPFLA]: 0
PAGAFARRP [5T4 9-mer peptide 54 PAGAFARRP]: 0

Qu. Provide only the value of recorded iScore for VRNLFLTGN [5T4 9-mer peptide 47 VRNLFLTGN]
Ans. 0

Qu. Provide only the value of recorded iScore for LAVLPAGAF [5T4 9-mer peptide 52 LAVLPAGAF]
Ans. 0.049

Qu. Provide only the value of recorded iScore for GSRLDEVRA [5T4 9-mer peptide 64 GSRLDEVRA]
Ans. 0
